Cited source for all entries: PubChem BioAssay AID1996

Conditions: buffer; pH 7.4; 200.0 µM
Recorded solubility kinetic, one value per entry.

{"columns": ["molecule", "solubility kinetic"],
 "data": [
  ["Cc1[nH]c(=O)[nH]c(=O)c1S(=O)(=O)Nc1ccc(F)c([N+](=O)[O-])c1", "> 51.6 µg/mL"],
  ["CC(SCC(=O)O)c1nc2ccccc2[nH]1 (configuration not stated)", "> 35.4 µg/mL"],
  ["Cc1ccc(C(=O)OCC(=O)N2CCCCCC2)cc1S(=O)(=O)N1CCOCC1", "> 63.7 µg/mL"],
  ["CS(=O)(=O)c1ccc(C(=O)N2CC(=O)Nc3ccccc32)cc1", "> 49.6 µg/mL"],
  ["CCCNC(=O)[C@H](C)NC(=O)c1ccc(Br)cc1", "> 47 µg/mL"],
  ["COC(=O)c1scc(C)c1NC(=O)c1ccccc1F", "> 44 µg/mL"],
  ["O=C(NCCc1ccccc1)c1cccc(N2CCCC2=O)c1", "> 46.3 µg/mL"],
  ["Cc1cc(S(=O)(=O)NCCCn2ccnc2)c(C)cc1Cl", "> 49.2 µg/mL"],
  ["CN1CCN(c2c([N+](=O)[O-])cnc3ccccc23)CC1.Cl", "> 46.3 µg/mL"],
  ["C/C(=N\\O)c1ccc2c(c1)CC(C)O2 (configuration not stated)", "> 28.7 µg/mL"],
  ["CC1CCCCN1C(=O)CSc1nnc2ccccn12 (configuration not stated)", "> 43.6 µg/mL"],
  ["Cc1c(C(=O)N2CCOCC2)oc2ccccc12", "> 36.8 µg/mL"],
  ["CN1C(=O)c2ccccc2C(C(=O)O)C1c1cccc([N+](=O)[O-])c1 (configuration not stated)", "> 48.9 µg/mL"],
  ["Cc1cccc(Nc2ncnc(N)c2[N+](=O)[O-])n1", "> 36.9 µg/mL"],
  ["CC(=O)c1ccccc1NC(=O)COC(=O)/C=C/c1ccc(C)o1", "< 0.7 µg/mL"],
  ["O=C(NCCO)/C(=C/c1cccc([N+](=O)[O-])c1)NC(=O)c1ccco1", "> 51.8 µg/mL"],
  ["NC(=Nc1ccc(Br)cc1)c1ccccc1", "> 41.3 µg/mL"],
  ["O=C(NCCOc1cccc2cccnc12)c1cccs1", "> 44.8 µg/mL"],
  ["Cl.O=S(=O)(c1ccc(F)cc1)N1CCCNCC1", "> 44.2 µg/mL"],
  ["CCNC(=O)COC(=O)CCC(=O)c1ccc(F)cc1", "> 42.2 µg/mL"],
  ["CN(C)C(=O)c1ccc(-n2cnc3ccccc3c2=O)cc1", "> 44 µg/mL"],
  ["CC(=O)Nc1ccc(S(=O)(=O)N(CC(=O)NC2CC2)Cc2ccccc2)cc1", "> 60.2 µg/mL"]
]}
